test system: CRL-7250; experiment: Cytotoxic Profiling of Annotated Libraries Using Quantitative High-Throughput Screening (AID 1296008); details: Five cell lines viability, CellTiter-Glo ATP luminescence, 48-72 h; active compounds read low; further: on the % scale 0 is the no-effect control and ±100 the full control effect; nearly all actives have a fitted effect of over 60% in size
Inconclusive results are not listed.
property: max response (%)
Give bare numbers, in %.

Below: 3 compounds and their reported max response.
compound	value.units	max response
Cc1c(NC(=O)c2ccc(C(C)(C)C)cc2)cccc1-c1cn(C)c(=O)c(Nc2ccc(C(=O)N3CCOCC3)cc2)n1	%	2.1
CO[C@H]1C(=O)[C@]2(C)[C@@H](OC)C[C@H]3OC[C@@]3(OC(C)=O)[C@H]2[C@H](OC(=O)c2ccccc2)[C@]2(O)C[C@H](OC(=O)[C@H](O)[C@@H](NC(=O)OC(C)(C)C)c3ccccc3)C(C)=C1C2(C)C	%	-47
CCC(CC)[C@H](NC(C)=O)[C@@H]1[C@H](O)[C@@H](C(=O)O)C[C@@H]1N=C(N)N	%	2.58

Give max response for each listed item.
1. N#CC1(c2ccc(NC(=O)c3cccnc3NCc3ccncc3)cc2)CCCC1
2. O=C(O)c1ccccc1C(=O)Nc1ccc(-c2ccccc2)cc1
3. COc1ncc(-c2ccc3nccc(-c4ccnnc4)c3c2)cc1NS(=O)(=O)c1ccc(F)cc1F
4. CC(=O)N(C)C1(c2ccccc2)CCN(CCC[C@]2(c3ccc(Cl)c(Cl)c3)CCCN(C(=O)c3ccccc3)C2)CC1
5. CC[C@]1(O)C[C@@H]2CN(CCc3c([nH]c4ccccc34)[C@@](C(=O)OC)(c3cc4c(cc3OC)N(C=O)[C@@H]3C45CCN4CC=C[C@](CC)([C@H]45)[C@@H](OC(C)=O)[C@]3(O)C(=O)OC)C2)C1 (stereo not given in full)
6. O=C(NCc1ccncc1)C12C[C@H]3C[C@@H](C1)CC(c1ccc(Cl)cc1)(C3)C2
7. Nc1ncnc2c1ncn2[C@@H]1O[C@H](CO)C[C@@H]1O
8. CC(C)C[C@H](CC(=O)O)C(=O)N[C@@H](Cc1c[nH]c2ccccc12)C(=O)N[C@@H](C)c1ccccc1

Response:
1: -26.7; 2: 4.68; 3: -92.9; 4: -7.82; 5: -20.2; 6: -10.8; 7: -11.4; 8: -5.99

Give max response for each listed item.
1. COc1ccc2cccc(CCNC(C)=O)c2c1
2. O=C(NCCN1CCOCC1)c1ccc(Cl)cc1
3. CCCNC(=O)NS(=O)(=O)c1ccc(Cl)cc1
4. CC=CC[C@@H](C)C(=O)[C@H]1C(=O)N[C@@H](C(C)C)C(=O)N(C)CC(=O)N(C)[C@@H](CC(C)C)C(=O)N[C@@H](C(C)C)C(=O)N(C)[C@@H](CC(C)C)C(=O)N[C@@H](C)C(=O)N[C@H](C)C(=O)N(C)[C@@H](CC(C)C)C(=O)N(C)[C@@H](CC(C)C)C(=O)N(C)[C@@H](C(C)C)C(=O)N1C

Response:
[-2.32, 0.679, -0.307, -6.35]
